// values below are reported % CA-SP1 Accumulation 100 nM SP1 V7A
- Test system: pNL4-3 SP1-V7A
- Method Notes: CA-SP1 accumulation assay, SP1-V7A derivative
- Assay type: cell-based, HIV-1
- Condition Label: 100 nM compound, HeLa or 293T cells
Structures can show the parent of a compound that is named as a salt.

>  <Compound>
C=C(C)[C@@H]1CC[C@]2(CCCNCCN3CCS(=O)(=O)CC3)CC[C@]3(C)[C@H](CC[C@@H]4[C@@]5(C)CC[C@H](OC(=O)CC(C)(C)C(=O)O)C(C)(C)[C@@H]5CC[C@]43C)[C@@H]12 [Compound 51dd]

>  <Val>
7.3%

$$$$
>  <Compound>
C=C(C)[C@@H]1CC[C@]2(CCNC3CCN(CCO)CC3)CC[C@]3(C)[C@H](CC[C@@H]4[C@@]5(C)CC[C@H](OC(=O)CC(C)(C)CC(=O)O)C(C)(C)[C@@H]5CC[C@]43C)[C@@H]12 [Compound 51f, Bis(trifluoroacetate) Salt]

>  <Val>
43.4 (3) %

$$$$
>  <Compound>
C=C(C)[C@@H]1CC[C@]2(CCNC3CCN(CCOC)CC3)CC[C@]3(C)[C@H](CC[C@@H]4[C@@]5(C)CC[C@H](OC(=O)CC(C)(C)CC(=O)O)C(C)(C)[C@@H]5CC[C@]43C)[C@@H]12 [Compound 51g, Bis(trifluoroacetate) Salt]

>  <Val>
46.5 (3) %

$$$$

Now consider the entry below.
Lookup: % CA-SP1 Accumulation 100 nM SP1 V7A / pNL4-3 SP1-V7A / CCN1CCC(NCC[C@]23CC[C@@H](C4(C)CC4)[C@@H]2[C@H]2CC[C@@H]4[C@@]5(C)CC[C@H](OC(=O)CC(C)(C)C(=O)O)C(C)(C)[C@@H]5CC[C@@]4(C)[C@]2(C)CC3)CC1 [Compound 51k]
27.3 (2) %

====

- System: panel of HIV-1 isolates in human PBMCs
- Method Notes: PBMC antiviral assay against a panel of HIV-1 isolates (RT activity)
- Type: cell-based
- Condition Label: Human immunodeficiency virus 1, PBMC, isolate 99UGA07412MI, PBMC
Counter-ions that a name gives are not always drawn.
Quantity Name: log10 of IC50 (log10 of the value in nM)
Please keep in mind that the values are log10 of IC50 expressed in nM.

Take a look at these entries with their results.
>  <Compound>
C=C(C)[C@@H]1CC[C@]2(CCNCCN3CCN(S(C)(=O)=O)CC3)CC[C@]3(C)[C@H](CC[C@@H]4[C@@]5(C)CC[C@H](OC(=O)CC(C)(C)C(=O)O)C(C)(C)[C@@H]5CC[C@]43C)[C@@H]12 [Compound 51ff]

>  <log10 of IC50>
0.63

$$$$
>  <Compound>
C=C(C)[C@@H]1CC[C@]2(CCNCCN3CCN(Cc4cccc(F)c4)CC3)CC[C@]3(C)[C@H](CC[C@@H]4[C@@]5(C)CC[C@H](OC(=O)CC(C)(C)C(=O)O)C(C)(C)[C@@H]5CC[C@]43C)[C@@H]12 [Compound 51m]

>  <log10 of IC50>
1.25

$$$$
>  <Compound>
C=C(C)[C@@H]1CC[C@]2(CCNCCN3CCN(Cc4ccccc4)CC3)CC[C@]3(C)[C@H](CC[C@@H]4[C@@]5(C)CC[C@H](OC(=O)CC(C)(C)C(=O)O)C(C)(C)[C@@H]5CC[C@]43C)[C@@H]12 [Compound 51hh]

>  <log10 of IC50>
0.90

$$$$
>  <Compound>
C=C(C)[C@@H]1CC[C@]2(CCNCCN3CCN(Cc4ccc5ccccc5c4)CC3)CC[C@]3(C)[C@H](CC[C@@H]4[C@@]5(C)CC[C@H](OC(=O)CC(C)(C)C(=O)O)C(C)(C)[C@@H]5CC[C@]43C)[C@@H]12 [Compound 51r]

>  <log10 of IC50>
2.57

$$$$
>  <Compound>
C=C(C)[C@@H]1CC[C@]2(CCNCCN3CCN(Cc4ccc(Cl)cc4)CC3)CC[C@]3(C)[C@H](CC[C@@H]4[C@@]5(C)CC[C@H](OC(=O)CC(C)(C)C(=O)O)C(C)(C)[C@@H]5CC[C@]43C)[C@@H]12 [Compound 51n]

>  <log10 of IC50>
1.50

$$$$

# input compound: C=C(C)[C@@H]1CC[C@]2(CCNCCN3CCS(=O)(=O)CC3)CC[C@]3(C)[C@H](CC[C@@H]4[C@@]5(C)CC[C@H](OC(=O)CC(C)(C)C(=O)O)C(C)(C)[C@@H]5CC[C@]43C)[C@@H]12 [Compound 51ee] ; wanted: its log10 of IC50
0.34

Similarly, C=C(C)[C@@H]1CC[C@]2(CCNCCN3CCN(Cc4cccc(Cl)c4)CC3)CC[C@]3(C)[C@H](CC[C@@H]4[C@@]5(C)CC[C@H](OC(=O)CC(C)(C)C(=O)O)C(C)(C)[C@@H]5CC[C@]43C)[C@@H]12 [Compound 51o] ?
1.52

Similarly, C=C(C)[C@@H]1CC[C@]2(CCNC3CCN(CCO)CC3)CC[C@]3(C)[C@H](CC[C@@H]4[C@@]5(C)CC[C@H](OC(=O)CC(C)(C)CC(=O)O)C(C)(C)[C@@H]5CC[C@]43C)[C@@H]12 [Compound 51f, Bis(trifluoroacetate) Salt] ?
0.91
